I'd be grateful if you could share measured Post-emergence action at 1.25 g/ha against ABUTH in % for these entries.
- System: Abutilon theophrasti (ABUTH)
- testDetails: Post-emergence herbicidal action, greenhouse pot test
- Type: in vivo
- conditionSet: 1.25 g/ha, rated visually after about 3 weeks vs untreated controls, 100% = plants have died
Answers are plain numbers, in %.

Study these solved cases before continuing.
COCCOCCOC(=O)COc1ccccc1Oc1cc(-n2c(=O)cc(C(F)(F)F)n(C)c2=O)c(F)cc1C#N = 80
Cn1c(C(F)(F)F)cc(=O)n(-c2cc(Oc3ccccc3OCC(=O)OCCOC(F)(F)F)c([N+](=O)[O-])cc2F)c1=O = 100
Cn1c(C(F)(F)F)cc(=O)n(-c2cc(Oc3ccccc3OCC(=O)OCc3ccccn3)c(Br)cc2F)c1=O = 100
COCCOCCOC(=O)COc1ccccc1Oc1cc(-n2c(=O)cc(C(F)(F)F)n(C)c2=O)c(F)cc1[N+](=O)[O-] = 100
COCCOC(=O)COc1ccccc1Oc1cc(-n2c(=O)cc(C(F)(F)F)n(C)c2=O)c(F)cc1Br = 100
Cn1c(C(F)(F)F)cc(=O)n(-c2cc(Oc3c(F)cccc3OCC(=O)OCc3ccccn3)c(Cl)cc2F)c1=O = 100
Cn1c(C(F)(F)F)cc(=O)n(-c2cc(Oc3ccccc3OCC(=O)OCc3ccccn3)c(C#N)cc2F)c1=O = 100
COCCOC(=O)COc1ccc(F)cc1Oc1cc(-n2c(=O)cc(C(F)(F)F)n(C)c2=O)c(F)cc1Cl = 100

// for each compound below, give its Post-emergence action at 1.25 g/ha against ABUTH in %
1. Cn1c(C(F)(F)F)cc(=O)n(-c2cc(Oc3ccccc3OCC(=O)OCc3cccnn3)c(Br)cc2F)c1=O
2. COCCOCCOC(=O)COc1ccccc1Sc1cc(-n2c(=O)cc(C(F)(F)F)n(C)c2=O)c(F)cc1Cl
3. Cn1c(C(F)(F)F)cc(=O)n(-c2cc(Oc3ccccc3OCC(=O)OCCC#N)c(Cl)cc2F)c1=O
4. Cn1c(C(F)(F)F)cc(=O)n(-c2cc(Oc3ccccc3OCC(=O)OCCC[N+](=O)[O-])c(Cl)cc2F)c1=O

100
100
100
90

Each of the following entries comes with a recorded value; kindly state Post-emergence action at 1.25 g/ha against ABUTH in % for each.
1. Cn1c(C(F)(F)F)cc(=O)n(-c2cc(Oc3ccccc3OCC(=O)OCCOC(F)(F)F)c(C#N)cc2F)c1=O
2. Cn1c(C(F)(F)F)cc(=O)n(-c2cc(Oc3ccccc3OCC(=O)OCc3ccncc3)c(Cl)cc2F)c1=O

[100, 100]

Each compound below has a recorded value; state its Post-emergence action at 1.25 g/ha against ABUTH in %.
1. Cn1c(C(F)(F)F)cc(=O)n(-c2cc(Oc3ccccc3OCC(=O)OCc3cccnn3)c(Cl)cc2F)c1=O
2. COCCOC(=O)COc1cccc(F)c1Oc1cc(-n2c(=O)cc(C(F)(F)F)n(C)c2=O)c(F)cc1Cl
3. Cn1c(C(F)(F)F)cc(=O)n(-c2cc(Sc3ccccc3OCC(=O)OCC3CCCO3)c(Cl)cc2F)c1=O (racemic)
4. COCCOCCOC(=O)C(C)Oc1ccccc1Sc1cc(-n2c(=O)cc(C(F)(F)F)n(C)c2=O)c(F)cc1Cl (racemic)
5. Cn1c(C(F)(F)F)cc(=O)n(-c2cc(Oc3ccccc3OCC(=O)OCc3ccccn3)c([N+](=O)[O-])cc2F)c1=O
6. CCOCCOC(=O)C(C)Oc1ccccc1Sc1cc(-n2c(=O)cc(C(F)(F)F)n(C)c2=O)c(F)cc1Cl (racemic)
7. Cn1c(C(F)(F)F)cc(=O)n(-c2cc(Oc3ccccc3OCC(=O)OC3COC3)c(Cl)cc2F)c1=O
8. Cn1c(C(F)(F)F)cc(=O)n(-c2cc(Oc3ccccc3OCC(=O)OCCOC(F)(F)F)c(Br)cc2F)c1=O

100
100
100
100
100
80
80
80

Hi team, please reply with Post-emergence action at 1.25 g/ha against ABUTH in % for each item in this list.
1. CCOCCOC(=O)COc1ccccc1Oc1cc(-n2c(=O)cc(C(F)(F)F)n(C)c2=O)c(F)cc1Cl
2. Cn1c(C(F)(F)F)cc(=O)n(-c2cc(Oc3ccccc3OCC(=O)OCc3cccnc3)c(Cl)cc2F)c1=O
3. CCOCCOC(=O)COc1ccccc1Oc1cc(-n2c(=O)cc(C(F)(F)F)n(C)c2=O)c(F)cc1C#N
4. COCCCOC(=O)COc1ccccc1Sc1cc(-n2c(=O)cc(C(F)(F)F)n(C)c2=O)c(F)cc1Cl
5. COCCOCCOC(=O)COc1ccccc1Oc1cc(-n2c(=O)cc(C(F)(F)F)n(C)c2=O)c(F)cc1Br
6. CC(Oc1ccccc1Sc1cc(-n2c(=O)cc(C(F)(F)F)n(C)c2=O)c(F)cc1Cl)C(=O)OCCO (racemic)
7. Cn1c(C(F)(F)F)cc(=O)n(-c2cc(Oc3c(F)cccc3OCC(=O)OCC#N)c(Cl)cc2F)c1=O

100
90
100
100
100
100
100
